Source: paper PMC7031696

Catalogue of Log2(fold change) N-acetyl-L-ornithine readings, one per entry.
- Tested on: 3D7-MR4 trophozoite parasite-infected RBCs
- assay-procedure: Metabolomic profiling (hydrophilic metabolite changes, UHPLC-MS)
- Assay type: cell-based, Plasmodium falciparum
- stated-conditions: metabolite N-acetyl-L-ornithine

Solved entries:
• CN(C(=O)c1cn2c(-c3ccc(C(F)(F)F)cc3)cnc2cn1)c1ccc(C#N)cc1 [KAI407, reference compound] = -0.3674
• CCCN(CCC)CC(O)COc1ccccc1C(=O)Nc1ccccc1 (stereo not shown) [MMV006455] = -1.4120

// output Log2(fold change) N-acetyl-L-ornithine; input C[C@H]1Cc2c([nH]c3cc(Cl)c(F)cc23)[C@@]2(N1)C(=O)Nc1ccc(Cl)cc12 [KAE609, reference compound] ; system 3D7-MR4 trophozoite parasite-infected RBCs
-1.2700

// output Log2(fold change) N-acetyl-L-ornithine; input COc1cc(-c2nc(-c3ccccc3)c(-c3ccccc3)[nH]2)ccc1OCCN(C)C [MMV027496] ; system 3D7-MR4 trophozoite parasite-infected RBCs
0.0000

* * *

- Tested on: 3D7-MR4 trophozoite parasite-infected RBCs
- assay-procedure: Metabolomic profiling (hydrophilic metabolite changes, UHPLC-MS)
- Type: cell-based, Plasmodium falciparum
- stated-conditions: metabolite 6-phospho-D-gluconate, log2 fold change
Catalogue of Log2(fold changes) 6-phospho-D-gluconate readings, one per entry.
Just the number.

- Clc1ccc2c(N3CCN(CCCN4CCN(c5ccnc6cc(Cl)ccc56)CC4)CC3)ccnc2c1 [Piperaquine, reference compound]: 0.0537
- CCCCN(CCCC)CC(O)c1cc(Cl)cc2c1-c1ccc(Cl)cc1/C2=C/c1ccc(Cl)cc1 (stereo not shown) [Lumefantrine, reference compound]: -0.0221
- Cc1ccc(Oc2ncccc2C(=O)Nc2cccc3cccnc23)c(C)c1 [MMV020746]: -0.3888
- CN(C(=O)c1cn2c(-c3ccc(C(F)(F)F)cc3)cnc2cn1)c1ccc(C#N)cc1 [KAI407, reference compound]: -0.0493
- CCOC(=O)C1=C(C)NC2=C(C(=O)CC(c3ccc(OC)c(OC)c3)C2)C1c1ccccc1Cl (stereo not shown) [GNF-Pf-5660, reference compound]: -0.0448
- CCCN(CCC)CC(O)COc1ccccc1C(=O)Nc1ccccc1 (stereo not shown) [MMV006455]: 0.4580
- Cc1cc(Nc2ccc(S(F)(F)(F)(F)F)cc2)n2nc(C(C)(F)F)nc2n1 [DSM265, reference compound]: 0.2100
- CN(C)c1ccc2nc3ccc(=[N+](C)C)cc-3sc2c1 [Methylene blue, reference compound]: 0.0184
- COc1cc(-c2nc(-c3ccccc3)c(-c3ccccc3)[nH]2)ccc1OCCN(C)C [MMV027496]: -0.1141
- CC(C)(C)NCc1cc(Nc2ccnc3cc(Cl)ccc23)c2c(c1O)CCCC2 [Naphtoquine, Naphthoquine, reference compound]: 0.1085

Indicate its recorded Log2(fold changes) 6-phospho-D-gluconate; the molecule in question is O=C(Nc1ccsc1C(=O)NC1CCCCC1)c1ccc(F)cc1 [MMV665939]
-0.2234

Indicate its recorded Log2(fold changes) 6-phospho-D-gluconate; the molecule in question is C[C@H]1Cc2c([nH]c3cc(Cl)c(F)cc23)[C@@]2(N1)C(=O)Nc1ccc(Cl)cc12 [KAE609, reference compound]
-0.2800

Indicate its recorded Log2(fold changes) 6-phospho-D-gluconate; the molecule in question is CC(C)(C)c1ccc2c(c1)CN(Cc1ccc(Cl)cc1)CO2 [MMV000442]
-0.0694

* * *

- Tested on: Plasmodium falciparum 3D7-A10 parasites
- assay-procedure: Stage specificity assay (8-h exposure of synchronized stages, IC50^8h)
- Type: cell-based
- stated-conditions: Plasmodium falciparum, 3D7, read-out: Early rings IC50 (IC50^8h)
reported-property: IC50

Indicate its recorded IC50; the compound in question is C[C@H]1Cc2c([nH]c3cc(Cl)c(F)cc23)[C@@]2(N1)C(=O)Nc1ccc(Cl)cc12 [KAE609, reference compound]
> 1250 nM

* * *

- Test system: Plasmodium falciparum 3D7-A10 parasites
- assay-procedure: Stage specificity assay (8-h exposure of synchronized stages, IC50^8h)
- Format: cell-based
- stated-conditions: Plasmodium falciparum, 3D7, read-out: Schizonts Mean IC50 (IC50^8h), 8-h exposure 32–40 hr, 3D7-A10, survival at 60 h
pIC50: −log10 of the molar value.
Decision: pIC50 >= 6 yields label 1, all other cases yield label 0.

- CCCCN(CCCC)CC(O)c1cc(Cl)cc2c1-c1ccc(Cl)cc1/C2=C/c1ccc(Cl)cc1 (stereo not shown) [Lumefantrine, reference compound]: label 1
- COCCNCC(O)Cn1c2ccc(Cl)cc2c2cc(Cl)ccc21 (stereo not shown): label 0
- OC(c1cc(C(F)(F)F)nc2c(C(F)(F)F)cccc12)C1CCCCN1 (stereo not shown) [Mefloquine, reference compound]: label 1

Hi team, for FC(F)(F)c1ccc(Nc2cc3[nH]c(-c4cccc(C(F)(F)F)c4)nc3cn2)nc1 , is the recorded pIC50 at or above 6?
label 0

Hi team, for CCOC(=O)C1=C(C)N=c2s/c(=C\c3cc(Cl)ccc3O)c(=O)n2C1c1ccc(OC)cc1 (stereo not shown) , is the recorded pIC50 at or above 6?
label 1

Hi team, for CN(C)c1ccc2nc3ccc(=[N+](C)C)cc-3sc2c1 [Methylene blue, reference compound] , is the recorded pIC50 at or above 6?
label 1

Hi team, for CCOC(=O)C1=C(C)NC2=C(C(=O)CC(c3ccc(OC)c(OC)c3)C2)C1c1ccccc1Cl (stereo not shown) [GNF-Pf-5660, reference compound] , is the recorded pIC50 at or above 6?
label 1

Hi team, for COc1cncc(-c2cncc(N3CCN(c4ccncc4)CC3)n2)c1 , is the recorded pIC50 at or above 6?
label 1

Hi team, for O=C(Nc1ccc(N2CCNCC2)cc1)c1ccn2ncc(-c3cccc(Cl)c3)c2n1.O=C(O)C(F)(F)F , is the recorded pIC50 at or above 6?
label 0

Hi team, for C[C@H]1[C@@H](O)O[C@@H]2O[C@@]3(C)CC[C@H]4[C@H](C)CC[C@@H]1[C@@]24OO3 [Dihydroartemisinin, reference compound] , is the recorded pIC50 at or above 6?
label 1

Hi team, for Cc1cc(Nc2ccc(OCc3ccccc3)cc2)nc2cc(O)ccc12 , is the recorded pIC50 at or above 6?
label 1

Hi team, for COc1cc(-c2nc(-c3ccccc3)c(-c3ccccc3)[nH]2)ccc1OCCN(C)C , is the recorded pIC50 at or above 6?
label 0

Hi team, for O=C(Nc1ccsc1C(=O)NC1CCCCC1)c1ccc(F)cc1 , is the recorded pIC50 at or above 6?
label 0

Hi team, for CNc1nc(NCCCN(C)C)c2sc(-c3cccc(C(F)(F)F)c3)cc2n1 , is the recorded pIC50 at or above 6?
label 1

Hi team, for CCCOCc1cc(CN2CCN(c3cccc(Cl)c3)CC2)c(O)c2ncccc12 , is the recorded pIC50 at or above 6?
label 0

* * *

- Tested on: 3D7-MR4 trophozoite parasite-infected RBCs
- assay-procedure: Metabolomic profiling (hydrophilic metabolite changes, UHPLC-MS)
- Format: cell-based, Plasmodium falciparum
- stated-conditions: metabolite pantothenate
reported-property: Log2(fold change) pantothenate
Just the number.

* CCCN(CCC)CC(O)COc1ccccc1C(=O)Nc1ccccc1 (centres unmarked) | 0.0000
* O=C(Nc1ccsc1C(=O)NC1CCCCC1)c1ccc(F)cc1 | -0.2337
* COCCNCC(O)Cn1c2ccc(Cl)cc2c2cc(Cl)ccc21 (centres unmarked) | 0.0000
* COc1cncc(-c2cncc(N3CCN(c4ccncc4)CC3)n2)c1 | -0.2410
* FC(F)(F)c1cccc(Nc2nc3ccccc3nc2Nc2cccc(C(F)(F)F)c2)c1 | -0.3232

Indicate its recorded Log2(fold change) pantothenate; the compound in question is Cc1cc(Nc2ccc(S(F)(F)(F)(F)F)cc2)n2nc(C(C)(F)F)nc2n1 [DSM265, reference compound]
0.0000

Indicate its recorded Log2(fold change) pantothenate; the compound in question is CC(C)C[C@@H](/C=C/S(C)(=O)=O)NC(=O)[C@H](CC(C)C)NC(=O)[C@H](Cc1c[nH]c2ccccc12)NC(=O)CN1CCOCC1 [WLL-vs, reference compound]
-0.2167

Indicate its recorded Log2(fold change) pantothenate; the compound in question is CC(C)(C)NCc1cc(Nc2ccnc3cc(Cl)ccc23)c2c(c1O)CCCC2 [Naphtoquine, Naphthoquine, reference compound]
0.0000

* * *

Catalogue of Log2(fold change) malate readings, one per entry.
- System: 3D7-MR4 trophozoite parasite-infected RBCs
- assay-procedure: Metabolomic profiling (hydrophilic metabolite changes, UHPLC-MS)
- Type: cell-based, Plasmodium falciparum
- stated-conditions: metabolite malate
Just the number.

Indicate its recorded Log2(fold change) malate; the compound in question is CC(C)C[C@@H](/C=C/S(C)(=O)=O)NC(=O)[C@H](CC(C)C)NC(=O)[C@H](Cc1c[nH]c2ccccc12)NC(=O)CN1CCOCC1 [WLL-vs, reference compound]
-0.1070
